Below, each entry is listed with its recorded GI50.
System: NCI-H23
Assay: NCI tumour cell line growth inhibition, 48 h
Active and inactive are the calls of the source. Rule as the data show it: active = GI50 up to about 1.1 µM and inactive = higher.
Assay Endpoint: GI50

[[record]]
compound = "COc1cc(S(=O)(=O)N/N=C/c2cc(Br)c(O)c(OC)c2)c(OC)cc1NC(C)=O"
result = "> 100 µM (inactive)"

[[record]]
compound = "COC(=O)c1ccc(Cc2ccc(C(=O)OC)o2)o1"
result = "> 378 µM (inactive)"

[[record]]
compound = "CC1=C(C(=O)Nc2cccc(C(F)(F)F)c2)C(c2ccccc2F)C(C(=O)Nc2cccc(C(F)(F)F)c2)=C(C)N1"
result = "4.59 µM (inactive)"

[[record]]
compound = "CCN(CC)CCN(/C(=N/c1ccccc1)N1CCCCC1)c1ccccc1"
result = "4.38 µM (inactive)"

[[record]]
compound = "O=S1(=O)OCCOS(=O)(=O)C1(Br)Cc1ccccc1"
result = "> 100 µM (inactive)"


----------
System: NCI-H460
Assay: NCI tumour cell line growth inhibition, 48 h
Active and inactive are the calls of the source. No stated cut-off is given here; in the data, active = GI50 up to about 1.1 µM and inactive = higher.
Below, each entry is listed with its recorded GI50.
Assay Endpoint: GI50

[[record]]
compound = "COc1ccc(/N=C\\c2ccc(N(CCC#N)CCC#N)cc2)cc1"
result = "43.1 µM (inactive)"

[[record]]
compound = "C=C1C(=O)OC2C1C(OC(=O)/C(C)=C/C)CC1(C)C(=O)CCC(=C)C21 (stereo unspecified)"
result = "13.3 µM (inactive)"

[[record]]
compound = "c1ccc2c(c1)c1ccccc1n2Cn1c2ccccc2c2ccccc21"
result = "> 100 µM (inactive)"

[[record]]
compound = "O=C(NCCCCNc1cccccc1=O)OCc1ccccc1"
result = "> 100 µM (inactive)"

[[record]]
compound = "CN(C)CCNC(=O)c1cccc2c1Nc1ccccc1S2"
result = "11.2 µM (inactive)"

[[record]]
compound = "O=C(Nc1ccc(Cl)cc1Cl)C(=O)C(C(=O)c1ccncc1)C1OC(=O)c2ccccc21 (stereo unspecified)"
result = "> 100 µM (inactive)"

[[record]]
compound = "NC(=O)NC1C(c2ccccc2)=C1c1ccccc1"
result = "15.5 µM (inactive)"

[[record]]
compound = "C/C(=N/NC(=S)N(C)CCc1ccccn1)c1cnccn1"
result = "0.047 µM (active)"

[[record]]
compound = "CC(C)(Oc1ccc2c(=O)cc(-c3ccccc3)oc2c1)C(=O)Nc1c(Cl)cccc1Cl"
result = "> 100 µM (inactive)"

[[record]]
compound = "COc1cccc2c(=O)oc(-c3ccccc3C)nc12"
result = "56.9 µM (inactive)"

[[record]]
compound = "Nc1nc2c(nnn2C2C=C(CO)C(O)C2O)c(=O)[nH]1 (stereo unspecified)"
result = "> 100 µM (inactive)"

[[record]]
compound = "COC(=O)C1=C(c2cc(OC)c(OC)c(OC)c2)OC(c2cc(OC)c(OC)c(OC)c2)C1COC(C)=O (stereo unspecified)"
result = "36.6 µM (inactive)"

[[record]]
compound = "CC1=N[C@@](C)(C2CC3C=CC2C3=O)COC1=O (stereo partly specified)"
result = "> 100 µM (inactive)"

[[record]]
compound = "CC(N)/C(N)=N/O (stereo unspecified)"
result = "> 100 µM (inactive)"

[[record]]
compound = "N#CC(N)(C(=O)CCC(=O)Nc1cccc(Cl)c1)c1ccc(Cl)cc1 (stereo unspecified)"
result = "> 100 µM (inactive)"

[[record]]
compound = "CSc1ncc2c(C#N)c3ccccn3c(=O)c2n1"
result = "57.3 µM (inactive)"

